experiment: Inhibition of Saccharomyces cerevisiae alpha-glucosidase assessed as decrease in release of p-nitrophenol using pNPG as substrate preincubated for 2 hrs followed by substrate addition by spectrophotometric method
MEASUREMENT_TYPE: pIC50
pIC50 is a log-scale quantity: -log10 of the concentration expressed in molar.

Query string: Suppose we examine the molecule O=c1cc(-c2ccc(O)cc2)oc2cc(O)cc(O)c12 [APIGENIN] ; what pIC50 value has been reported?
Result string: 3.44
